Entries and their Enzyme Activity Endpoint Assay (purified): Fab'2 values follow.
Target: pooled human IgG
Recorded Endpoint: Enzyme Activity Endpoint Assay (purified): Fab'2 (ng/µL)

Protein	Recorded Measurement
PRT-147 (protein) MANQEIRYSEVTPYHIKIVWTKGVTPPANFTQGEDVFHAPYVANQGWYDITKTFNGKDDLLCGAATAGNMLHWWFDQNKDQIKRYLEEHPEKQKINFNGEQMFDVKEAIDTKNHQLDSKLFEYFKEKAFPYLSTKHLGVFPDHVIDMFINGYRLSLTNHGPTPVKEGSKDPRGGIFDAVFTRGDQSKLLTSRHDFKEKTLNDISQLIKQELQSGKALGLSHTYANVRINHVINLWGADFDAEGNLEAIYVTDSDSNASIGMKKYFVGKNSAGKVAISAKEIKEDNIGAQVLGLFTLSTGQDSWNQTN	723
PRT-290 (protein) MVTSVWTKGVTPPADFTQGEDVFHAPYVANQGWYDITKTFNGKDDLLCGAATAGNMLHWWFDQNKEYIEAYLKKHPEKQKIMFGDQELLDVRKAINTKGSQKNSELFNYFRDKAFPNLSARRLGVMPDLVLDMFINGYYLNVTKTQTTDVNRTYQEKDKRGGIFDAVFTRGDQSKLLTSRHDFKEKGLKEISDLIKQELTEGKALGLSHTYANVRIGHVINLWGADFDSDGNLKAIYVTDSDSNASIGMKKYFVGVNSSGKVAISAKEIKEDNIGAQVLGLFTLSTGQDIWNQTN	191
PRT-230 (protein) MEVVEVWPYGQNPNGKTEILSQTEDSESLQRLRDIEDFQAEKKMQNVVYTKWLDGVDVKDHDFRKIVDGNIAYYATPLLNGRGFYDINKDFNRDSDKCAAAVAANMFHYWLDINRDNVDRFLRQNPEKHGIIELPDGQLKLSDFLNTYESDNGYRDKSKLFDFISNNFNGPVWTDKLLDNYINGYAYNYKYGRTIEDPTKNTSKINFFKEVFNEKILTNNHSIRNQNEFSVLLSEALYTGKAIGLSYGPAGLRHSLGHIISVWGADLDADGNVVAIYVTDSDDKKLTIGDERVGLKRYKISTDDENRLRLTAYEETHNTGGQIRGLWTLDTGKYAWADYFDKTEQTGTDQAEQLEHHHHHH	699
PRT-151 (protein) MANQEIRYSEVTPYHVTSVWTKGVTPPANFTQGEDVFHAPYVANQGWYDITKTFNGKDDLLCGAATAGNMLHWWFDQNKDQIKRYLEEHPDKQKINFNGEQMFDVKEAIDTKNHQLDSKLFEYFKEKAFPYLSTKHLGVFPDHVIDMFINGYRLSLTNHGPTPVKRQTKDPRGGIFDAVFGRGDSTKLLTSRHDFKEKNLKEISDLIKKELTEGKALGLSHTYANVRINHVINLWGADFDSNGNLKAIYVTDSDSNASIGMKKYFVGVNSAGKVAISAKEIKEDNIGAQVLGLFTLSTGQKSWNKTN	521
